Reference source for all entries: patent US20240270821A1

- Assayed target: human glucagon receptor (human) (UniProt P47871)
- Sequence (P47871 26-477): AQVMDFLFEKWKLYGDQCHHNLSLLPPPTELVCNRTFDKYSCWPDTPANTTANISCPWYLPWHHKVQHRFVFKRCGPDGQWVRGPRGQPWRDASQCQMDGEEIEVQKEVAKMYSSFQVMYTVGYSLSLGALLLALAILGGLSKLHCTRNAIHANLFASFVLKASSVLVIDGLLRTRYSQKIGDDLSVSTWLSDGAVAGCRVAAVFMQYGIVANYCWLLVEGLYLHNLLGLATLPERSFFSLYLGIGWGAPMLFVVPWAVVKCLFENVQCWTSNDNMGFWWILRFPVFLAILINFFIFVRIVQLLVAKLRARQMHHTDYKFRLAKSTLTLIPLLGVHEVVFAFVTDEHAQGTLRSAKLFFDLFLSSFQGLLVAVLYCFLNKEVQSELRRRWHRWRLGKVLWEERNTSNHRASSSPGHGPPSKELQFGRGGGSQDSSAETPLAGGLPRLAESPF
- Assay procedure: cell-based or functional assay
Think of 500 nM as a floor: if cAMP Rel EC50, nM (1% HSA) stands on it or above, it is Y; beneath it, N.

Please review the entries below; each comes with its answer.
[
  {
    "Binder": "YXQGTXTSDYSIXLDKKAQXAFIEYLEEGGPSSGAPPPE (synthetic construct; SITE 2: note = 2-Aminoisobutyric Acid; SITE 6: note = alpha-methyl-L-phenylalanine; SITE 13: note = alpha-methyl-leucine; SITE 17: note = Lysine is chemically modified through conjugation of the epsilon-amino group of the Lysine side chain with (2-[2-(2-Amino-ethoxy)-ethoxy]-ace)) [Example 396]",
    "Classification": "N"
  },
  {
    "Binder": "YXQGTFTSDFSXXLDKKAQXAFIEYLLEGGHSSGEPPPGGS (synthetic construct; SITE 2: note = 2-Aminoisobutyric Acid; SITE 12: note = L-ornithine; SITE 13: note = alpha-methyl-leucine; SITE 17: note = Lysine is chemically modified through conjugation of the epsilon-amino group of the Lysine side chain with (2-[2-(2-Amino-ethoxy)-ethoxy]-acetyl)-(gamma-Glu)) [Example 164]",
    "Classification": "N"
  },
  {
    "Binder": "YXQGTXTSDXXIXLDXKAQXXFIEXLQEGGPSSGEPPPE (synthetic construct; SITE 2: note = 2-Aminoisobutyric Acid; SITE 6: note = alpha-methyl-2-fluoro-L-phenylalanine; SITE 10: note = 3-(4-Pyridyl)-L-alanine; SITE 11: note = alpha-methyl-L-serine; SITE 13: note = alpha-methyl-leucine; SITE 16: note = L-ornithine; SITE 17: note = Lysine is chemically mo) [Example 439]",
    "Classification": "N"
  },
  {
    "Binder": "YXQGTFTSDXSQXLDKKAQXAFIEYLIAGGPSSGEPPPSGS (non-natural residues; lipidated Lys (γGlu)2-C18 diacid; C-term amide; synthetic construct; SITE 2: note = 2-Aminoisobutyric Acid; SITE 10: note = 3-(4-Pyridyl)-L-alanine; SITE 13: note = alpha-methyl-leucine; SITE 17: note = Lysine is chemically modified through conjugation of the epsilon-amino group of the Lysine side chain with (gamma-Glu)2-CO-(CH2)16-CO2H; SITE 20:) [Example 968]",
    "Classification": "Y"
  },
  {
    "Binder": "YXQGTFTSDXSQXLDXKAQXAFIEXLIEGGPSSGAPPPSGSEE (non-natural residues, C18 diacid-(γGlu)2 acyl on K, C-terminal amide; synthetic construct; SITE 2: note = 2-Aminoisobutyric Acid; SITE 10: note = 3-(4-Pyridyl)-L-alanine; SITE 13: note = alpha-methyl-leucine; SITE 16: note = L-ornithine; SITE 17: note = Lysine is chemically modified through conjugation of the epsilon-amino group of the Lysine side chain with (gamma-Gl)) [Example 1043]",
    "Classification": "Y"
  }
]

Now consider a different binder.
Assess whether reported cAMP Rel EC50, nM (1% HSA) for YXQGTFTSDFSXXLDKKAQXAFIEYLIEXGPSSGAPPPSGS (synthetic construct; SITE 2: note = 2-Aminoisobutyric Acid; SITE 12: note = L-ornithine; SITE 13: note = alpha-methyl-leucine; SITE 17: note = Lysine is chemically modified through conjugation of the epsilon-amino group of the Lysine side chain with (2-[2-(2-Amino-ethoxy)-ethoxy]-acetyl)-(gamma-Glu)) [Example 796] sits at 500 nM or higher.
Y
